Assay: Slurry interconversion studies in cyclohexane
Format: physicochemical
Conditions: cyclohexane; ambient temperature, 50° C. and 5° C.
Experimental: Samples of mixed forms by XRPD and pure forms were used for interconversion studies (see FIG. 37). A saturated solution was prepared by vortexing and sonicating ca. 4 mg (−)-halofenate Form A in approximately 5-6 mL cyclohexane. This solution was filtered into a sample containing a mixture of ca. 40 mg Form A/Form D. The mixture was slurred on a rotating wheel at ambient temperature for approximately 6 days. […] The dry solids were analyzed by polarized light microscopy and XRPD. […]

compound: CC(=O)NCCOC(=O)C(Oc1cccc(C(F)(F)F)c1)c1ccc(Cl)cc1 (stereo not shown) [Form B]
form resulting from slurry: resulted in Form A

compound: CC(=O)NCCOC(=O)C(Oc1cccc(C(F)(F)F)c1)c1ccc(Cl)cc1 (stereo not shown) [Form A]
form resulting from slurry: resulted in Form A

compound: CC(=O)NCCOC(=O)C(Oc1cccc(C(F)(F)F)c1)c1ccc(Cl)cc1 (stereo not shown) [Form D]
form resulting from slurry: resulted in Form A

compound: CC(=O)NCCOC(=O)C(Oc1cccc(C(F)(F)F)c1)c1ccc(Cl)cc1 (stereo not shown) [Form E]
form resulting from slurry: resulted in Form A

* * *

Test: physchem
Conditions: organic solvent or mixture, thermodynamic from solid
outcome measure: solubility

Lab note: measured solubility of CC(=O)NCCOC(=O)C(Oc1cccc(C(F)(F)F)c1)c1ccc(Cl)cc1 (single isomer, unassigned; (-)) [(−)-halofenate] was > 300 mg/mL
